measurement description: Cytotoxicity against HEK cells assessed as cell viability at 3.2 ug/ml after 48 hrs by CellTiter-Glo assay relative to control
Format: toxicity, cell-based, HEK293
test conditions: human, read-out: Activity
readout kind: viability at 48 h, 3.2 ug/ml (%)
The figure you give is taken to be in %; do not add the unit.

### Prompt Check the records and state viability at 48 h, 3.2 ug/ml for CCCCCCCCCCOc1ccc2[nH]cc(CCN)c2c1.Cl
### Response 2

---

measurement description: Cytotoxicity against HEK cells assessed as cell viability at 0.8 ug/ml after 48 hrs by CellTiter-Glo assay relative to control
Assay type: toxicity, cell-based, HEK293
test conditions: human, read-out: Activity
readout kind: viability at 48 h, 0.8 ug/ml (%)
The figure you give is taken to be in %; do not add the unit.

### Prompt Check the records and state viability at 48 h, 0.8 ug/ml for CCCCCCCCCCOc1ccc2[nH]cc(CCN)c2c1.Cl
### Response 39.1

---

Tested on: Escherichia coli
measurement description: Antibacterial activity against Escherichia coli BW25113 after 16 to 18 hrs by micro-dilution method
Assay type: functional
Kindly state MIC for each of the entries shown.
The figure you give is taken to be in µg/mL; do not add the unit.

### Prompt Check the records and state MIC for CCCCCCOc1ccc2[nH]cc(CCN)c2c1.Cl
### Response 42

### Prompt Check the records and state MIC for CCCCCCCCCOc1ccc2[nH]cc(CC[N+](C)(C)C)c2c1
### Response 52

### Prompt Check the records and state MIC for CCCCCCCCCOc1cccc(CCN)c1
### Response 5.3

### Prompt Check the records and state MIC for CC(C)CCCC(C)CCOc1ccc2[nH]cc(CCN)c2c1.Cl (stereo unspecified)
### Response 13

### Prompt Check the records and state MIC for Cl.NCCc1c[nH]c2ccc(OCCCCCCCc3ccccc3)cc12
### Response 14

### Prompt Check the records and state MIC for CCCCCCCCCOc1ccc2[nH]cc(CCN)c2c1.Cl
### Response 6

### Prompt Check the records and state MIC for CCCCCCCCCOc1ccc(CCN)cc1
### Response 5.3

### Prompt Check the records and state MIC for CCCCCCCCCCOc1ccc2[nH]cc(CCN)c2c1.Cl
### Response 6.3

### Prompt Check the records and state MIC for CCCCCCCCCOc1cccc(CN)c1
### Response 9.4

### Prompt Check the records and state MIC for CCCCCCCCCCCCOc1ccc2[nH]cc(CCN)c2c1.Cl
### Response 26

---

Kindly state MIC for each of the entries shown.
Tested on: Acinetobacter baumannii
measurement description: Antibacterial activity against Acinetobacter baumannii after 16 to 18 hrs by micro-dilution method
Format: functional

### Prompt Check the records and state MIC for CCCCCCCCCOc1ccc(CCN)cc1
### Response 5.3 µg/mL

### Prompt Check the records and state MIC for CCCCCCCCCOc1ccc2[nH]ccc2c1
### Response > 83 µg/mL

### Prompt Check the records and state MIC for COc1ccc2c(CCN)c[nH]c2c1
### Response > 60.8 µg/mL

### Prompt Check the records and state MIC for CCCCCCCCCCCCCCCOc1ccc2[nH]cc(CCN)c2c1.Cl
### Response > 124 µg/mL

### Prompt Check the records and state MIC for CC(C)CCCC(C)CCOc1ccc2[nH]cc(CCN)c2c1.Cl (centres undefined)
### Response 13 µg/mL

### Prompt Check the records and state MIC for CCCCCCCCCOc1ccc2[nH]cc(CCN)c2c1.Cl
### Response 6 µg/mL

### Prompt Check the records and state MIC for CCCCCCCCCOc1ccc2[nH]cc(CCNC(=O)OC(C)(C)C)c2c1
### Response > 130 µg/mL

### Prompt Check the records and state MIC for CCCCCCCCCOc1cccc(CCN)c1
### Response 5.3 µg/mL

### Prompt Check the records and state MIC for Cc1[nH]c2ccc(O)cc2c1CCN
### Response > 60.8 µg/mL

---

Kindly state MIC for each of the entries shown.
Tested on: Acinetobacter baumannii
measurement description: Antibacterial activity against Acinetobacter baumannii after 16 to 18 hrs by micro-dilution method
Type: functional
The figure you give is taken to be in µg/mL; do not add the unit.

### Prompt Check the records and state MIC for CCCCCCCCCCCCOc1ccc2[nH]cc(CCN)c2c1.Cl
### Response 28

### Prompt Check the records and state MIC for CCCCCCOc1ccc2[nH]cc(CCN)c2c1.Cl
### Response 42

### Prompt Check the records and state MIC for Cl.NCCc1c[nH]c2ccc(OCCCCCCCc3ccccc3)cc12
### Response 7

### Prompt Check the records and state MIC for CCCCCCCCCOc1cccc(CN)c1
### Response 9.4

### Prompt Check the records and state MIC for CCCCCCCCCOc1ccc2[nH]cc(CC[N+](C)(C)C)c2c1
### Response 52

### Prompt Check the records and state MIC for CCCCCCCCCCOc1ccc2[nH]cc(CCN)c2c1.Cl
### Response 6.3

---

measurement description: Cytotoxicity against HEK cells assessed as cell viability at 6.9 ug/ml after 48 hrs by CellTiter-Glo assay relative to control
Type: toxicity, cell-based, HEK293
test conditions: human, read-out: Activity
readout kind: viability at 48 h, 6.9 ug/ml
Please give the number followed by its unit.

### Prompt Check the records and state viability at 48 h, 6.9 ug/ml for CCCCCCCCCCCCOc1ccc2[nH]cc(CCN)c2c1.Cl
### Response 2.6%

---

measurement description: Cytotoxicity against HEK cells assessed as cell viability at 3.5 ug/ml after 24 hrs by CellTiter-Glo assay relative to control
Assay type: toxicity, cell-based, HEK293
test conditions: human, read-out: Activity
readout kind: viability at 24 h, 3.5 ug/ml (%)
The figure you give is taken to be in %; do not add the unit.

### Prompt Check the records and state viability at 24 h, 3.5 ug/ml for CCCCCCCCCCCCOc1ccc2[nH]cc(CCN)c2c1.Cl
### Response 26

---

Test system: Escherichia coli
measurement description: Adjuvant activity assessed as potentiation of rifampicin-induced antibacterial activity against Escherichia coli BW25113 at 0.25 times MIC after 16 to 18 hrs by checkerboard assay (reference value: 8 ng/ml)
Format: functional
readout kind: MIC (ng/mL)
The figure you give is taken to be in ng/mL; do not add the unit.

### Prompt Check the records and state MIC for CCCCCCCCCCCCOc1ccc2[nH]cc(CCN)c2c1.Cl
### Response 1

### Prompt Check the records and state MIC for CCCCCCOc1ccc2[nH]cc(CCN)c2c1.Cl
### Response 4

### Prompt Check the records and state MIC for CCCCCCCCCOc1cccc(CCN)c1
### Response 4

### Prompt Check the records and state MIC for CCCCCCCCCCOc1ccc2[nH]cc(CCN)c2c1.Cl
### Response 8

### Prompt Check the records and state MIC for CCCCCCCCCOc1ccc2[nH]cc(CCN)c2c1.Cl
### Response 8

---

Kindly state MIC for each of the entries shown.
Test system: Escherichia coli
measurement description: Adjuvant activity assessed as potentiation of tetracycline-induced antibacterial activity against Escherichia coli BW25113 at 0.5 times MIC after 16 to 18 hrs by checkerboard assay (reference value: 2 ng/ml)
Format: functional

### Prompt # lookup: Escherichia coli MIC, key = CCCCCCCCCOc1cccc(CCN)c1
### Response 1 ng/mL

### Prompt # lookup: Escherichia coli MIC, key = CCCCCCOc1ccc2[nH]cc(CCN)c2c1.Cl
### Response 1 ng/mL

### Prompt # lookup: Escherichia coli MIC, key = CCCCCCCCCCOc1ccc2[nH]cc(CCN)c2c1.Cl
### Response 0.25 ng/mL

### Prompt # lookup: Escherichia coli MIC, key = CCCCCCCCCCCCOc1ccc2[nH]cc(CCN)c2c1.Cl
### Response 0.25 ng/mL

### Prompt # lookup: Escherichia coli MIC, key = CCCCCCCCCOc1ccc2[nH]cc(CCN)c2c1.Cl
### Response 2 ng/mL

---

Kindly state MIC for each of the entries shown.
Test system: Salmonella typhimurium
measurement description: Antibacterial activity against Salmonella typhimurium after 16 to 18 hrs by micro-dilution method
Assay type: functional, Salmonella enterica subsp. enterica serovar Typhimurium
test conditions: Salmonella enterica
The figure you give is taken to be in µg/mL; do not add the unit.

### Prompt Check the records and state MIC for CCCCCCCCCCOc1ccc2[nH]cc(CCN)c2c1.Cl
### Response 6.3

### Prompt Check the records and state MIC for CCCCCCCCCOc1cccc(CN)c1
### Response 4.7

### Prompt Check the records and state MIC for CCCCCCOc1ccc2[nH]cc(CCN)c2c1.Cl
### Response 42

---

measurement description: Cytotoxicity against HEK cells assessed as cell viability at 21 ug/ml after 24 hrs by CellTiter-Glo assay relative to control
Format: toxicity, cell-based, HEK293
test conditions: human, read-out: Activity
readout kind: viability at 24 h, 21 ug/ml (%)
The figure you give is taken to be in %; do not add the unit.

### Prompt Check the records and state viability at 24 h, 21 ug/ml for CCCCCCOc1ccc2[nH]cc(CCN)c2c1.Cl
### Response 0
